This collection of values is drawn from the NIST ThermoML archive (doi:10.1021/je060170c).

# run-parameters: 293.15 K; 101 kPa; Liquid; Anton Paar Stabinger viscometer
value-kind: viscosity (mPa·s)
Numbers only, in mPa·s.

The following compounds have reported results that may help.
The reported viscosity of the compound Cc1cc(C)cc(C)c1 was 0.705

viscosity measured on Cc1ccc(C)cc1 = 0.65

Per the record, Cc1cccc(C)c1 has viscosity of 0.619

viscosity recorded for this compound, c1ccccc1 , is 0.648

In plain terms, Cc1ccccc1C has a documented viscosity of 0.81

Provide viscosity values for the following items, in order.
1. Cc1ccccc1
2. COc1ccccc1

[0.588, 1.084]

----------
# run-parameters: 298.15 K; 101 kPa; Liquid
Could you please report measured mass density for the items listed next?
Answers are plain numbers, in kg/m3.

In the examples that follow, each entry is paired with its recorded mass density.
mass density measured on Cc1cc(C)cc(C)c1 [1,3,5-trimethylbenzene] = 861.062

Value of mass density reported for the compound Cc1ccccc1 [toluene] is 862.2

// mass density lookup, compound = Cc1cccc(C)c1 [1,3-dimethylbenzene] , result: 859.767

Need mass density for each of these compounds.
1. Cc1ccccc1C [1,2-dimethylbenzene]
2. Cc1ccc(C)cc1 [1,4-dimethylbenzene]
3. c1ccccc1 [benzene]

[875.532, 856.617, 873.58]

----------
# run-parameters: 298.15 K; 101 kPa; Liquid
Please provide measured speed of sound for the entries that follow.
Give bare numbers, in m/s.

Observe how each entry below is paired with its result.
Sure, the documented speed of sound for c1ccccc1 is 1299.7

The recorded speed of sound for entry Cc1ccc(C)cc1 equals 1310

The compound identified as COc1ccccc1 registered its speed of sound at 1408

// for each compound below, give its speed of sound
1. Cc1ccccc1C
2. Cc1ccccc1
3. Cc1cc(C)cc(C)c1
4. Cc1cccc(C)c1

[1349.4, 1305.4, 1336.9, 1321]

----------
# run-parameters: 288.15 K; 101 kPa; Liquid; Anton Paar Stabinger viscometer
Answer Not satisfied if viscosity is under 0.8 mPa·s, and Satisfied if it is 0.8 mPa·s or more.

For orientation, consider the following solved cases.
Does viscosity meet or surpass 0.8 mPa·s for Cc1cccc(C)c1 [1,3-dimethylbenzene] ?
Not satisfied

Evaluate Cc1cc(C)cc(C)c1 [1,3,5-trimethylbenzene] : viscosity at minimum 0.8 mPa·s?
Not satisfied

***
viscosity >= 0.8 mPa·s for Cc1ccccc1C [1,2-dimethylbenzene] ?
Satisfied

Reported viscosity reaches at least 0.8 mPa·s for c1ccccc1 [benzene] ?
Not satisfied

# bool: viscosity of COc1ccccc1 [anisole] >= 0.8 mPa·s
Satisfied

viscosity >= 0.8 mPa·s for Cc1ccc(C)cc1 [1,4-dimethylbenzene] ?
Not satisfied

Reported viscosity reaches at least 0.8 mPa·s for Cc1ccccc1 [toluene] ?
Not satisfied

----------
# run-parameters: 298.15 K; 101 kPa; Liquid; Anton Paar Stabinger viscometer
hey, just use criterion met if measured viscosity is less than 0.7 mPa·s, otherwise criterion not met

Answered cases to consult:
Record Cc1cccc(C)c1 : is its viscosity strictly below 0.7 mPa·s?
criterion met

Regarding COc1ccccc1 , kindly confirm whether its viscosity is beneath 0.7 mPa·s.
criterion not met

hey, is viscosity for Cc1ccccc1C lower than 0.7 mPa·s or not?
criterion not met

Now, please, on to the next compound.
Quick check: does Cc1ccccc1 have viscosity under 0.7 mPa·s?
criterion met
